# experimental_protocol: Pharmacokinetic parameters following intravenous and oral administration in dogs
# Format: in vivo, female beagles
# test_conditions: female, beagle, dog, plasma, oral administration (p.o.), read-out: F (bioavailability)
assay_metric: bioavailability (%)

I. O=C(O)c1cnn(-c2cccc(-c3cc(Cl)ccc3-c3ccc(N4CCN(CC5CC5)CC4)cc3)n2)c1C(F)(F)F [174 (WO2012/058132), reference compound]
II. CC(C)CN1CCN(c2ccc(-c3ccc(Cl)cc3N3CCCC(n4ncc(C(=O)O)c4C(F)F)C3)cc2)CC1 (single isomer, unassigned; enantiomer 2) [Example 2]
Query: In the pair I and II , the larger recorded bioavailability belongs to which? Bench note: the answer is the label of the chosen record.
Response: II
